# maps each entry to its CHLORIDE
Organism: Rattus norvegicus
protocolText: DrugMatrix - Regimen: Daily Repeat
Type: toxicity, organism-based, Sprague-Dawley
Parameters: regimen Daily Repeat, gender Male, age 6-8 weeks
measurementParameters: in vivo, iv, 0 mg/kg, 72 h, tissue Plasma, dose level Control, time 3 day, vehicle 100 % SALINE

# molecule, CHLORIDE, MEQ/L
measured = [
    ("C[N+](C)(C)CCOC(=O)CCC(=O)OCC[N+](C)(C)C.[Cl-].[Cl-] [SUCCINYLCHOLINE CHLORIDE]", 102.4),
    ("O=C(O)P(=O)(O)O", 103),
    ("COc1cccc2c1C(=O)c1c(O)c3c(c(O)c1C2=O)C[C@@](O)(C(C)=O)C[C@@H]3O[C@H]1C[C@H](N)[C@H](O)[C@H](C)O1", 102.17),
    ("O=c1[nH]c(=O)n([C@H]2C[C@H](O)[C@@H](CO)O2)cc1F", 101.33),
]

---

Species on record: Rattus norvegicus
protocolText: DrugMatrix - Regimen: Daily Repeat
Format: toxicity, organism-based, Sprague-Dawley
Parameters: regimen Daily Repeat, gender Male, age 6-8 weeks
measurementParameters: in vivo, po, 0 mg/kg, 72 h, tissue Blood, route oral GAVAGE, dose level Control, time 3 day, vehicle .5 % CMC
# maps each entry to its ABSOLUTE SEGMENTED NEUTROPHIL
reportedMetric: ABSOLUTE SEGMENTED NEUTROPHIL (CELLS/uL)

# compound, reportedMetric, quantitativeReadout
records = [
    ("NC(=O)N1c2ccccc2CC(=O)c2ccccc21 [OXCARBAZEPINE]", "ABSOLUTE SEGMENTED NEUTROPHIL", 970),
    ("C[C@H]1[C@H](NC(=O)/C(=N\\OC(C)(C)C(=O)O)c2csc(N)n2)C(=O)N1S(=O)(=O)O", "ABSOLUTE SEGMENTED NEUTROPHIL", 1490.83),
    ("C[C@]12CC[C@@H]3c4ccc(O)cc4CC[C@H]3[C@@H]1C[C@@H](O)[C@@H]2O", "ABSOLUTE SEGMENTED NEUTROPHIL", 1121.33),
    ("COc1cc(OC)c(C(=O)CCCN2CCCC2)c(OC)c1", "ABSOLUTE SEGMENTED NEUTROPHIL", 1401),
    ("COc1ccccc1[N+](=O)[O-]", "ABSOLUTE SEGMENTED NEUTROPHIL", 2420.5),
    ("CCOc1nc2cccc(C(=O)O)c2n1Cc1ccc(-c2ccccc2-c2nnn[nH]2)cc1", "ABSOLUTE SEGMENTED NEUTROPHIL", 722.33),
    ("CN(C)C(=O)C(CCN1CCC(O)(c2ccc(Cl)cc2)CC1)(c1ccccc1)c1ccccc1 [LOPERAMIDE]", "ABSOLUTE SEGMENTED NEUTROPHIL", 1192.33),
    ("CCC1=C(C)CN(C(=O)NCCc2ccc(S(=O)(=O)NC(=O)N[C@H]3CC[C@H](C)CC3)cc2)C1=O [GLIMEPIRIDE]", "ABSOLUTE SEGMENTED NEUTROPHIL", 1192.33),
    ("C[C@@](Cc1ccc(O)c(O)c1)(NN)C(=O)O.O", "ABSOLUTE SEGMENTED NEUTROPHIL", 1490.83),
    ("C[C@@H]1O[C@@H](O[C@H]2C[C@@H](O)[C@]3(CO)[C@H]4[C@H](O)C[C@]5(C)[C@@H](C6=CC(=O)OC6)CC[C@]5(O)[C@@H]4CC[C@]3(O)C2)[C@H](O)[C@H](O)[C@H]1O", "ABSOLUTE SEGMENTED NEUTROPHIL", 1298),
]

---

# maps each entry to its NEUTROPHIL
Species on record: Rattus norvegicus
protocolText: DrugMatrix - Regimen: Daily Repeat
Format: toxicity, organism-based, Sprague-Dawley
Design: regimen Daily Repeat, gender Male, age 6-8 weeks
measurementParameters: in vivo, iv, 0 mg/kg, 72 h, tissue Blood, dose level Control, time 3 day, vehicle 100 % SALINE

# molecule, NEUTROPHIL [%]
records = [
    ("COc1cccc2c1C(=O)c1c(O)c3c(c(O)c1C2=O)C[C@@](O)(C(C)=O)C[C@@H]3O[C@H]1C[C@H](N)[C@H](O)[C@H](C)O1", 6.5),
    ("N=C(N)c1ccc(OCCCCCOc2ccc(C(=N)N)cc2)cc1", 10),
    ("O=c1[nH]c(=O)n([C@H]2C[C@H](O)[C@@H](CO)O2)cc1F", 9),
    ("C[N+](C)(C)CCOC(=O)CCC(=O)OCC[N+](C)(C)C.[Cl-].[Cl-] [SUCCINYLCHOLINE CHLORIDE]", 10),
    ("O=C(O)P(=O)(O)O", 8.17),
]

---

Species on record: Rattus norvegicus
protocolText: DrugMatrix - Regimen: Daily Repeat
Format: toxicity, organism-based, Sprague-Dawley
Set-up: regimen Daily Repeat, gender Male, age 6-8 weeks
measurementParameters: in vivo, iv, 0 mg/kg, 120 h, tissue Plasma, dose level Control, time 5 day, vehicle 100 % SALINE
reportedMetric: CARBON DIOXIDE (mmol/L)

# compound, quantitativeReadout
rows = [
    ("C[N+](C)(C)CCOC(=O)CCC(=O)OCC[N+](C)(C)C.[Cl-].[Cl-] [SUCCINYLCHOLINE CHLORIDE]", 26.67),
    ("N=C(N)c1ccc(OCCCCCOc2ccc(C(=N)N)cc2)cc1", 26.67),
    ("O=C(O)P(=O)(O)O", 25.67),
    ("O=c1[nH]c(=O)n([C@H]2C[C@H](O)[C@@H](CO)O2)cc1F", 26.5),
    ("COc1cccc2c1C(=O)c1c(O)c3c(c(O)c1C2=O)C[C@@](O)(C(C)=O)C[C@@H]3O[C@H]1C[C@H](N)[C@H](O)[C@H](C)O1", 30.67),
]

---

Organism: Rattus norvegicus
protocolText: DrugMatrix - Regimen: Daily Repeat
Format: toxicity, organism-based, Sprague-Dawley
Parameters: regimen Daily Repeat, gender Male, age 6-8 weeks
measurementParameters: in vivo, po, 0 mg/kg, 72 h, tissue Blood, route oral GAVAGE, dose level Control, time 3 day, vehicle 100 % WATER
hey, just use criterion met if measured ABSOLUTE LYMPHOCYTE is less than 10000 CELLS/uL, otherwise criterion not met

# compound, cat
rows = [
    ("CN(C)C(=O)Oc1cccc([N+](C)(C)C)c1.[Br-] [NEOSTIGMINE BROMIDE]", "criterion met"),
    ("NC12CC3CC(CC(C3)C1)C2", "criterion not met"),
    ("CNC1=Nc2ccc(Cl)cc2C(c2ccccc2)=[N+]([O-])C1 [CHLORDIAZEPOXIDE]", "criterion not met"),
    ("CCN(C(C)=O)c1cccc(-c2ccnc3c(C#N)cnn23)c1", "criterion not met"),
    ("CN(C)CCC=C1c2ccccc2CCc2ccccc21", "criterion not met"),
    ("CCCC(C)C1(CC)C(=O)NC(=O)NC1=O (stereo not drawn)", "criterion met"),
    ("O=c1[nH]c(=O)n(C2CCCO2)cc1F (stereo not drawn)", "criterion not met"),
]

---

Species on record: Rattus norvegicus
protocolText: DrugMatrix - Regimen: Daily Repeat
Assay type: toxicity, organism-based, Sprague-Dawley
Design: regimen Daily Repeat, gender Male, age 6-8 weeks
measurementParameters: in vivo, po, 0 mg/kg, 120 h, tissue Blood, route oral GAVAGE, dose level Control, time 5 day, vehicle .5 % CMC
# maps each entry to its ABSOLUTE MONOCYTE
reportedMetric: ABSOLUTE MONOCYTE (CELLS/uL)

# compound, quantitativeReadout
records = [
    ("COc1ccccc1[N+](=O)[O-] [2-NITROANISOLE]", 204.83),
    ("NC(=O)N1c2ccccc2CC(=O)c2ccccc21 [OXCARBAZEPINE]", 32),
    ("COc1cc(OC)c(C(=O)CCCN2CCCC2)c(OC)c1 [BUFLOMEDIL]", 60.5),
    ("C[C@@](Cc1ccc(O)c(O)c1)(NN)C(=O)O.O [CARBIDOPA]", 29.17),
]

---

Organism: Rattus norvegicus
protocolText: DrugMatrix - Regimen: Daily Repeat
Format: toxicity, organism-based, Sprague-Dawley
Design: regimen Daily Repeat, gender Male, age 6-8 weeks
measurementParameters: in vivo, po, 0 mg/kg, 120 h, tissue Blood, route oral GAVAGE, dose level Control, time 5 day, […]
reportedMetric: ABSOLUTE EOSINOPHIL (CELLS/uL)

# molecule, quantitativeReadout
rows = [
    ("CC(=O)Oc1ccccc1C(=O)O [ASPIRIN]", 0),
    ("CS(=O)(=O)Nc1ccc([N+](=O)[O-])cc1Oc1ccccc1 [NIMESULIDE]", 0),
    ("CCc1ccc(CCOc2ccc(CC3SC(=O)NC3=O)cc2)nc1 (stereo unspecified) [PIOGLITAZONE]", 26.33),
    ("CCCCC(=O)N(Cc1ccc(-c2ccccc2-c2nnn[nH]2)cc1)[C@H](C(=O)O)C(C)C", 20.67),
    ("CC(C)c1c(C(=O)Nc2ccccc2)c(-c2ccccc2)c(-c2ccc(F)cc2)n1CC[C@@H](O)C[C@@H](O)CC(=O)O [ATORVASTATIN]", 37.5),
    ("O=c1c(-c2ccc(O)cc2)coc2cc(O)cc(O)c12 [GENISTEIN]", 37.5),
]
